Origin of the recorded values: patent US12421238B2

Reported values of JAK3/JAK2 for individual entries
molecular target: JAK2 (Homo sapiens, UniProt O60674); assay: Kinase activity test on JAK2 (Caliper EZ Reader conversion rate); conditions: ratio of IC50 values, selectivity for JAK2 over JAK3
Sequence (O60674 whole entry): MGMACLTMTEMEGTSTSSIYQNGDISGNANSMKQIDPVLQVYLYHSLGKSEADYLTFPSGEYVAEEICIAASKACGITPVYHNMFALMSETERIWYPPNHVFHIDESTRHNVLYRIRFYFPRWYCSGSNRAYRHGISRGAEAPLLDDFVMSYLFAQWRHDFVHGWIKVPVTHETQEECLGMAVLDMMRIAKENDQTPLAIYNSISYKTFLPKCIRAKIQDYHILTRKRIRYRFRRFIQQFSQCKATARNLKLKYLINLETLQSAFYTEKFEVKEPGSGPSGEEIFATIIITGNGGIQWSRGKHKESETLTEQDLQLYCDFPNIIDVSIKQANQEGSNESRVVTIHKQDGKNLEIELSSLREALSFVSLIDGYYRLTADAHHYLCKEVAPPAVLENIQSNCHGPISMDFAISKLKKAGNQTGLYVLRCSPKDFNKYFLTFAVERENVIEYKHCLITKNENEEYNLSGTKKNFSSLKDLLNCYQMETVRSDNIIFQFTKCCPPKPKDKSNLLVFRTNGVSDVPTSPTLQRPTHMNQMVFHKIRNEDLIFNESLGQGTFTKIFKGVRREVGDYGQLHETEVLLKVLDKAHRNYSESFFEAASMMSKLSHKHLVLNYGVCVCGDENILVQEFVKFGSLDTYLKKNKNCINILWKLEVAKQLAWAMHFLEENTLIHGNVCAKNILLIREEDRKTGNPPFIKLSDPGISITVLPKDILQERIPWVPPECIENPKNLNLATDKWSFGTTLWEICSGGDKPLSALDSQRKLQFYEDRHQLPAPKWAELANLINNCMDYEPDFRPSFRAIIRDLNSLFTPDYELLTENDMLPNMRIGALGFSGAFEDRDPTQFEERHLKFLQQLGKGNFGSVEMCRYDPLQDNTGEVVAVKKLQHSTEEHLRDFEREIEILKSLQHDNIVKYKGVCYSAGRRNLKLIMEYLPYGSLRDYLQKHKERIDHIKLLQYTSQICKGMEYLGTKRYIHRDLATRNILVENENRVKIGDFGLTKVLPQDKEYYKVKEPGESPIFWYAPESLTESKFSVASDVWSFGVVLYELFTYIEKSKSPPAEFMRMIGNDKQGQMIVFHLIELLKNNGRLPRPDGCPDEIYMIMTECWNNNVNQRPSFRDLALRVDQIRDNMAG
Could you keep your reply to the number by itself?

- Chemical structure: "CC(C)(C)NS(=O)(=O)c1cccc(N2CCc3cnc(Nc4ccc(N5CCNCC5)cc4)nc32)c1"
  Recorded result: 695
- Chemical structure: "CN1CCC(c2ccc(Nc3ncc4c(n3)N(c3cccc(S(=O)(=O)NC(C)(C)C)c3)CC4)cc2)CC1"
  Recorded result: 1235
- Chemical structure: "CC(C)(C)NS(=O)(=O)c1cccc(N2CCc3cnc(Nc4ccc(CN5CCSCC5)cc4)nc32)c1"
  Recorded result: 865
- Chemical structure: "CC(C)(C)NS(=O)(=O)c1cccc(N2CCc3cnc(Nc4ccc(C5CCNCC5)cc4)nc32)c1"
  Recorded result: 1433
- Chemical structure: "CN1CCN(Cc2ccc(Nc3ncc4c(n3)N(c3cccc(S(=O)(=O)NC(C)(C)C)c3)CC4)cc2)CC1"
  Recorded result: 1256

Value of measured JAK3/JAK2 for the entry CC(C)(C)NS(=O)(=O)c1cccc(N2CCc3cnc(Nc4ccc(CN5CCCC5)cc4)nc32)c1 : 1455

Value of measured JAK3/JAK2 for the entry CC(C)(C)NS(=O)(=O)c1cccc(N2CCc3cnc(Nc4ccc(N5CCCCC5)cc4)nc32)c1 : 1588

====

Reported values of JAK1/JAK2 for individual entries
molecular target: JAK2 (Homo sapiens, UniProt O60674); assay: Kinase activity test on JAK2 (Caliper EZ Reader conversion rate); conditions: ratio of IC50 values, selectivity for JAK2 over JAK1

- Compound: "CC(C)(C)NS(=O)(=O)c1cccc(N2CCc3cnc(Nc4ccc(OC5CCNCC5)cc4)nc32)c1 [Compound I-19]"
  Recorded result: 134

For CN1CCN(c2ccc(Nc3ncc4c(n3)N(c3cccc(S(=O)(=O)NC(C)(C)C)c3)CC4)cc2)CC1 [Compound I-15] on JAK2 (Homo sapiens, UniProt O60674), measured JAK1/JAK2 was 99

For CC(C)(C)NS(=O)(=O)c1cccc(N2CCc3cnc(Nc4ccc(CN5CCS(=O)(=O)CC5)cc4)nc32)c1 [Compound I-9] on JAK2 (Homo sapiens, UniProt O60674), measured JAK1/JAK2 was 112

====

assay: Pharmacokinetic test in SD rats, intragastric administration; format: in vivo; conditions: rat, po, single intragastric administration, 25 mg/kg, plasma, read-out: Time to peak Tmax
Reported endpoint: Tmax (h)
Write the number in h without appending the unit.

Some solved cases for reference:
- Compound: "CN1CCN(c2ccc(Nc3ncc4c(n3)N(c3cccc(S(=O)(=O)NC(C)(C)C)c3)CC4)cc2)CC1"
  Quantity unit: "h"
  Tmax: 1.5
- Compound: "CN1CCN(CCOc2ccc(Nc3ncc4c(n3)N(c3cccc(S(=O)(=O)NC(C)(C)C)c3)CC4)cc2)CC1"
  Quantity unit: "h"
  Tmax: 1.5
- Compound: "Cc1cnc(Nc2ccc(OCCN3CCCC3)cc2)nc1Nc1cccc(S(=O)(=O)NC(C)(C)C)c1 [Fedratinib, reference compound]"
  Quantity unit: "h"
  Tmax: 1.5
- Compound: "CC(C)(C)NS(=O)(=O)c1cccc(N2CCc3cnc(Nc4ccc(OCCN5CCSCC5)cc4)nc32)c1"
  Quantity unit: "h"
  Tmax: 1.5
- Compound: "CC(C)(C)NS(=O)(=O)c1cccc(N2CCc3cnc(Nc4ccc(CN5CCSCC5)cc4)nc32)c1"
  Quantity unit: "h"
  Tmax: 2

Value of measured Tmax for the entry CC(C)(C)NS(=O)(=O)c1cccc(N2CCc3cnc(Nc4ccc(C5CCNCC5)cc4)nc32)c1 : 2

Value of measured Tmax for the entry CC(C)(C)NS(=O)(=O)c1cccc(N2CCc3cnc(Nc4ccc(OCCN5CCOCC5)cc4)nc32)c1 : 1.5
